STUDY TARGET: AgrA (Staphylococcus aureus, UniProt P0A0I7)
Construct: endogenous in cells; host or cells: S. aureus USA300 strain UAMS-1625 carrying a P3-lacZ reporter plasmid
Sequence (P0A0I7 whole entry): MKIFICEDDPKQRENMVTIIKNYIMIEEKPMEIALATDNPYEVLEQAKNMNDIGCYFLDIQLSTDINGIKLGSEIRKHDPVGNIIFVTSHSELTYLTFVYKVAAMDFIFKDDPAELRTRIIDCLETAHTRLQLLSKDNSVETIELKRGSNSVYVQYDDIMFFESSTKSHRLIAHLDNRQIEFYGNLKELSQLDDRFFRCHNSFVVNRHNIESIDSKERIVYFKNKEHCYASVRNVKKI
ASSAY PROTOCOL: cell-based
Parameters: species or system S. aureus
EXPERIMENTAL CONDITIONS: IC50 without HSA, LB medium, no human serum albumin, 18 hours incubation
Method: The inventive compounds are 3-(phenylsulfonyl)-[1,2,3]triazolo[1,5a]quinazolin-5(4h)-one derivatives comprising an N-bound piperazine or homopiperazine at the 8-position of the [1,2,3]triazolo[1,5a]quinazolin-5(4h)-one core, further substituted (on the second nitrogen atom) by an (optionally substituted) acetyl or propionyl amide group. […] The β-galactosidase produced by expression of lacZ cleaved the MUG into galactopyranose and 4-methylumbelliferone, which was measured by fluorescence. […]
Quick reference for IC50 among some compounds

{"columns": ["COMPOUND", "IC50"],
 "data": [
  ["O=C(CN1CCN(c2ccc3c(=O)[nH]c4c(S(=O)(=O)c5ccc(C(F)(F)F)cc5)nnn4c3c2)CC1)N1CCOCC1 [Compound 169]", "1650 to 8260 nM"],
  ["CCN(C)C(=O)CN1CCN(c2ccc3c(=O)[nH]c4c(S(=O)(=O)c5ccc(C)cc5C)nnn4c3c2)CC1 [Compound 9]", "< 1860 nM"],
  ["Cc1ccc(S(=O)(=O)c2nnn3c2[nH]c(=O)c2ccc(N4CCN(CC(=O)N5CCC6(CCN(C)CC6)CC5)CC4)cc23)c(C)c1 [Compound 127]", "< 1550 nM"],
  ["Cc1ccc(S(=O)(=O)c2nnn3c2[nH]c(=O)c2ccc(N4CCN(CC(=O)NC5CCC(O)CC5)CC4)cc23)c(C)c1 (centres unmarked) [Compound 43]", "< 1680 nM"],
  ["Cc1ccc(S(=O)(=O)c2nnn3c2[nH]c(=O)c2ccc(N4CCN(CC(=O)NC5CCCCC5)CC4)cc23)c(C)c1 [Compound 38]", "< 1730 nM"]
]}
